// provenance: PubChem BioAssay

Assay: mitochondrial membrane potential change in A549 cells, profiling panel, cell-based, JC-1 fluorescence, basal, 24 h, 100 nL (AID 1138);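 further: A549 lung adenocarcinoma cells under basal conditions with no added stimulus; test concentration not given here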
Settings: higher = more signal
Readout label: z-score
Answers are plain numbers.

INSERT INTO measurements (input_smiles, readout_label, quantitative_result) VALUES
  ('CC(CCN1CCc2nc(-c3ccccc3)c(-c3ccccc3)cc2C1)=NO[C@H](C)c1cn([C@@H]2COC[C@H]2O)nn1', 'z-score', 1.17),
  ('O=C1[C@H]2[C@H]3[C@H](O)[C@H](O)CC(=NOC[C@@H](O)COCc4ccco4)[C@H]3CC[C@H]2C(=O)N1c1cccc(Oc2ccccc2)c1', 'z-score', 0.89);

Qu. In one line, give reported z-score of the entry CC(C)[C@@H](OCc1ccccc1)[C@H](C)C=NOC[C@@H](C)[C@H](OCc1ccccc1)C(C)C .
Ans. -0.753
